System: Saccharomyces cerevisiae
Run description: protein stability index of tFT-peptide fusion (C-terminal peptide) (PSI (0-1 scale)); higher = more stable (slower turnover);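 further: PSI is a weighted mean of sequencing reads over stability bins, variants kept only with over 10 reads, mCherry proximal and sfGFP distal, peptide attached via GGGS linker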
Stated conditions: genetic background: das1 deletion; temperature: 30 C
Measured parameter: protein stability index
Form rule: numeric answer, no unit written next to it.

For "VSFGELGVEVVG" , what is its reported protein stability index?
0.529

Next: "SFFVCAGFWVLC"
0.347

Next: "MALAVRVVKCGA"
0.275

Next: "LYSVLWFCFPLV"
0.446

Next: "IRVFSFLLFGCF"
0.373

Next: "QVSHLFAAVQLA"
0.555

Next: "LLSGHFRLLLAF"
0.178

Next: "LFSIFMSYRVYI"
0.383

Next: "LLLVCYSTFIVA"
0.254

Next: "LLVCLGYFLFLG"
0.313

Next: "NAPSAIQKNKKC"
0.649

Next: "GILVVAASICYV"
0.355

Next: "GMGHLSNVCLKT"
0.639

Next: "FLSCSRRPLRCW"
0.303

Next: "RTFPYSALSFVS"
0.652

Next: "PCLLRYLVHPFP"
0.648

Next: "GVLFHIVLHFMV"
0.255

Next: "SCLSYRTRLLAF"
0.477

Next: "WVRLWGVLEAQG"
0.334

Next: "GKKKREWKKNRI"
0.645

Next: "SLSIFCLMLMLF"
0.467

Next: "SLCSRLVVVAWF"
0.432

Next: "VFFGLYLVTFTS"
0.222

Next: "EWGLGEIVVKVA"
0.534

Next: "TEVGAWLLLCRC"
0.268

Next: "FFFFPVYFIFVV"
0.259

Next: "LDLSSVFILYFN"
0.518

Next: "GGLFRWCVWRIV"
0.545

Next: "VCVFFRLCIVWY"
0.127

Next: "FIICAASWFFLG"
0.474

Next: "VAFGVASGWCWF"
0.687

Next: "FLCLFFLAVIKL"
0.344

Next: "CALLLLSVRAGQ"
0.432

Next: "FLRLSFLIFPLH"
0.471

Next: "SSVLWVMFVFFY"
0.309

Next: "LSVMKLFVMVGP"
0.37

Next: "ACFLFPSHLLIS"
0.541

Next: "LQIKSFTSQRLA"
0.642

Next: "FFVISVVLCLLV"
0.341

Next: "GFGRRGQFGGTG"
0.607

Next: "AVVCSRLVLFCL"
0.53

====

Tested on: Saccharomyces cerevisiae
Run description: protein stability index of tFT-peptide fusion (C-terminal peptide) (PSI (0-1 scale)); higher = more stable (slower turnover)
Stated conditions: genetic background: wild type; temperature: 30 C
# protein stability index binned as A (below 0.6), B (0.6 to below 0.7), C (0.7 or more)

Lab note: sort "RFFYGGRRTQQT" into the matching protein stability index band.
C

Next: "CRFYKYIRNMFR"
B

Next: "CSYPTLSMYSTT"
C

Next: "LVVIYPLLSSPV"
A

Next: "QSAFLFGFMSFW"
B

Next: "CSLLFFFLLSFG"
A

Next: "PTKRHRKAPGTN"
B

Next: "VFFGLYLVTFTS"
A

Next: "CRVALSRGVSLV"
B

Next: "AKLVESISEVAT"
B

Next: "ASPLTIHSPNLL"
C

Next: "THTEWVQFIRWY"
C

Next: "PRLRRVCGQSLV"
B

Next: "FLSLFCFFLPFF"
B

Next: "GPCTTFVVLLPE"
C

Next: "PPPPPPPFLFFL"
A

Next: "PPPTPHPLRRTP"
C

Next: "VEQLLYIKATNV"
A

Next: "LFSTRRWISVCA"
A

Next: "RGRSVEGSRGGW"
B

Next: "TLLSSIFLCLVL"
A

Next: "TPATRCLASDSR"
C

Next: "KKKKKTKNIKKT"
C

Next: "PRCPSTPQPEHH"
C

Next: "VGAVGVCILFVW"
A

Next: "LGVRSGGSWRAG"
C

Next: "FLLFSSFYFCFP"
A

Next: "CCSRFLMLRILV"
A
